# credit: paper PMC5291411

# System: CCRF-CEM cells
# experimental-protocol: Cell cycle and apoptosis analysis (propidium iodide flow cytometry)
# Type: cell-based, human
# condition-label: 5 × IC50
S (%) reference

// known answers, use as guide
C=C(CN=[N+]=[N-])[C@@H]1CC[C@]2(C(=O)O)CC[C@]3(C)C(CCC4[C@@]5(C)CC[C@H](OC(C)=O)C(C)(C)C5CC[C@]43C)C12 (some centres unmarked) :: 34.8%
C=C(Cn1cc(-c2ccccn2)nn1)[C@@H]1CC[C@]2(C(=O)O)CC[C@]3(C)C(CCC4[C@@]5(C)CC[C@H](OC(C)=O)C(C)(C)C5CC[C@]43C)C12 (some centres unmarked) :: 38.5%
C=C(Cn1cc(-c2ccccc2C=O)nn1)[C@@H]1CC[C@]2(C(=O)O)CC[C@]3(C)C(CCC4[C@@]5(C)CC[C@H](OC(C)=O)C(C)(C)C5CC[C@]43C)C12 (some centres unmarked) :: 46.2%
C=C(CBr)[C@@H]1CC[C@]2(C(=O)O)CC[C@]3(C)C(CCC4[C@@]5(C)CC[C@H](OC(C)=O)C(C)(C)C5CC[C@]43C)C12 (some centres unmarked) :: 43.0%

// moving on: another record for S (%)
query: I am curious: what S (%) value has been reported for C=C(Cn1cc(-c2ccccc2C=O)nn1)[C@@H]1CC[C@]2(C(=O)O)CC[C@]3(C)C(CCC4[C@@]5(C)CC[C@H](O)C(C)(C)C5CC[C@]43C)C12 (some centres unmarked) [Compound 11b] ?
result: 35.4%
